- Test system: Malme-3M
- assay_details: NCI tumour cell line growth inhibition, 48 h
Active and inactive are the calls of the source. Rule as the data show it: active = GI50 up to about 1.1 µM and inactive = higher.
metric_name: GI50

CS/C(C)=N/OC(=O)NCCCCNc1ccc(N=[N+]=[N-])cc1 : 32 µM (inactive)
Cc1ccc(O)c(-c2csc(NCN3CCN(CNc4nc(-c5cc(C)ccc5O)cs4)CC3)n2)c1 : > 100 µM (inactive)
[N-]=[N+]=NC1CC(n2cc(COCC(F)(F)F)c(=O)[nH]c2=O)OC1CO (stereo not given) : > 100 µM (inactive)
Cc1cc2c(cc1C)[n+]([O-])c(C(=O)/C=C/c1ccc(Cl)cc1)c(C)[n+]2[O-] : 38.5 µM (inactive)

# evaluate next
Given the molecule CCN1C(=O)C(=Cc2ccc(-c3ccccc3)cc2)C(=O)N(CC)C1=S , what is its reported GI50? > 100 µM (inactive)
